experimental-system: 15-hydroxyprostaglandin dehydrogenase [NAD(+)] (Homo sapiens, UniProt P15428)
Sequence (P15428 whole entry): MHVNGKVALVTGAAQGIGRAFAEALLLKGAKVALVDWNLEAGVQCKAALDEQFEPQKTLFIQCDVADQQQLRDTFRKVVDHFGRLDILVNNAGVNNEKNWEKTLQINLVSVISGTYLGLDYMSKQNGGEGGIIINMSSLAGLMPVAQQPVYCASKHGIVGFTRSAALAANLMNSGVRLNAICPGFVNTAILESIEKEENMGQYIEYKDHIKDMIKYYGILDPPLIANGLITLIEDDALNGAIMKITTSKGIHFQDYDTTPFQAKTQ
test-details: Inhibition of recombinant human 15-PGDH using PGE2 and beta-NAD+ as substrate preincubated for 15 mins followed by substrate addition and measured after 60 mins
quantity-measured: pIC50
Please treat pIC50 as minus the base-10 logarithm of the molar concentration.

So what's the measured pIC50 for this one? `Cn1cc2cc(-c3ccc4nc([C@H](O)C5CC(F)(F)C5)sc4n3)cnc2n1` 9.66
